Kindly state inhibition at 1 µM for each of the entries shown.
Molecular target: Recombinant human GSK3β (Homo sapiens)
Construct: His-tag; made in house; host or cells: Sf9 insect cells / baculovirus
Sequence (P49841 whole entry): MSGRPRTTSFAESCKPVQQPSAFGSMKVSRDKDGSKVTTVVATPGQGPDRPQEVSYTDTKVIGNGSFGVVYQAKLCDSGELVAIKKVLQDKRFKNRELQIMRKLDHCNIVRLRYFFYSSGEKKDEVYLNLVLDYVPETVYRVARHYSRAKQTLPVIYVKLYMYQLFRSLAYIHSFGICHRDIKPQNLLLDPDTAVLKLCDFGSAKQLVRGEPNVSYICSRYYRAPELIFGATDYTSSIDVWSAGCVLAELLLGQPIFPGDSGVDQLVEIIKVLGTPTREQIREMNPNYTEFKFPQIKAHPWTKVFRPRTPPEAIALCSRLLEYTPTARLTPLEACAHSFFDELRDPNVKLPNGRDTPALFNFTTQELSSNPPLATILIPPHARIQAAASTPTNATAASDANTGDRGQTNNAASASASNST
Experiment: GSK-3β (Glycogen Synthase Kinase) cell free enzyme assay
Assay type: biochemical
Settings: 1 μM; GSK-3β cell free enzyme assay; Examples 42-60; read-out: Percent inhibition at 1 μM
Give your result in % as a bare value.

What inhibition at 1 µM value was documented for this molecule, CC(=O)N1CCCC(Nc2nc(-c3ccncc3)cc(=O)n2C)CC1 (centres unmarked) [Example 43] ?
84

Continue with CC(=O)N1CCCC(Nc2nc(-c3ccncc3)cc(=O)n2C)C1 (centres unmarked) [Example 48]
55

What do we get for CC(=O)N1CCCC(N(C)c2nc(-c3ccncc3)cc(=O)n2C)CC1 (centres unmarked) [Example 53] ?
79

Same again, this time with CC(=O)N1CCC(Nc2nc(-c3ccncc3)cc(=O)n2C)CC1 [Example 47]
44

Also check CC(=O)N1CCCCC(Nc2nc(-c3ccncc3)cc(=O)n2C)C1 (centres unmarked) [Example 46]
51

How about this molecule: CC(=O)N[C@@H]1CC[C@@H](Nc2nc(-c3ccncc3)cc(=O)n2C)C1 [Example 60]
77

Input CC(=O)N1C[C@H](F)[C@H](Nc2nc(-c3ccncc3)cc(=O)n2C)C1 [Example 51]
78

Follow-up entry: CC(=O)N1CCC(Nc2nc(-c3ccncc3)cc(=O)n2C)C1 (centres unmarked) [Example 45]
39

Record: CC(=O)N1C[C@@H]2[C@H](C1)[C@H]2Nc1nc(-c2ccncc2)cc(=O)n1C [Example 49]
75

Also, CC(=O)N1CC[C@@]2(C)C[C@H](N(C)c3nc(-c4ccncc4)cc(=O)n3C)CC[C@@H]12 [Example 55] please.
71

Let us now turn to CC(=O)N1CCC(CNc2nc(-c3ccncc3)cc(=O)n2C)C1 (centres unmarked) [Example 59]
37

Input CC(=O)N1CCC(N(C)c2nc(-c3ccncc3)cc(=O)n2C)C1 (centres unmarked) [Example 52]
51

What do we get for CCN(c1nc(-c2ccncc2)cc(=O)n1C)C1CCN(C(C)=O)CC1 [Example 57] ?
93

Same again, this time with CC(=O)N1CCC[C@@H]1CNc1nc(-c2ccncc2)cc(=O)n1C [Example 58]
64

Can you handle CCN(c1nc(-c2ccncc2)cc(=O)n1C)C1CCN(C(C)=O)C1 (centres unmarked) [Example 54] next?
64

Please give the result for CCN(c1nc(-c2ccncc2)cc(=O)n1C)C1CCCN(C(C)=O)CC1 (centres unmarked) [Example 56] too.
85

Here is the next molecule: CC(=O)N1[C@@H]2CC[C@H]1CN(c1nc(-c3ccncc3)cc(=O)n1C)C2 [Example 44]
72
